Form field: IC50 (pERK 1/2, CHO cells expressing human TrkA) (one value per entry).
Target: T1, canine beta-NGF (cNGF) (canine, UniProt Q29074 110-229 (pig entry))
T1 chain: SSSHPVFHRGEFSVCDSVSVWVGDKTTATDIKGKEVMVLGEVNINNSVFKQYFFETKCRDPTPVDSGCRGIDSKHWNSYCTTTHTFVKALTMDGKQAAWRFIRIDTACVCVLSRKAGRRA
Assay: cell-based or functional assay
Supply the numeric figure in nM, leaving out any unit text.

{"binder": "31F05-02B03 (antibody, IgG1, V domains shown) VH: EVQLQQSGPGLVAPSQSLSITCTVSGFSLTGYGVNWVRQPPGKGLEWLGMIWGDGSTDYNSALKSRLSISKDNSKSQVFLKMNSLQTDDTARYYCARDGYYYGTTWYFDVWGAGTTVTVSS VL: DIQMTQTTSSLSASLGDRVTISCRASQDISNYLNWYQQKPDGTIKLLIYYTSRLHSGVPSRFSGSGSGTDYSLTISNLEQEDIATYFCQQGSTLPRTFGGGT", "number": 4.1}

# context switch: different binder, same IC50 (pERK 1/2, CHO cells expressing human TrkA)
Problem: Could you tell me which IC50 (pERK 1/2, CHO cells expressing human TrkA) is on file for 01B12-02B08 (antibody, IgG1, V domains shown) VH: EVKLQESGPGLVAPSQSLSITCTVSGFSLTGYGVNWVRQPPGKGLEWLGMIWGDGSTDYNSALKSRLSISKDNSKSQVFLKMNSLQTDDTARYYCARDGYYYGTTWYFDVWGAGTTVTVSS VL: DIVMTQSTSSLSASLGDRVTISCRASQDISNYLNWYQQKPDGTIKLLIYYTSRLHSGVPSRFSGSGSGTDYSLTISNLEQEDIATYFCQQGSTLPRTFGGGT ?
Result: 4.7
